target-under-test: Dihydroorotate dehydrogenase (fumarate) (Saccharomyces cerevisiae S288c)
Sequence (P28272 whole entry): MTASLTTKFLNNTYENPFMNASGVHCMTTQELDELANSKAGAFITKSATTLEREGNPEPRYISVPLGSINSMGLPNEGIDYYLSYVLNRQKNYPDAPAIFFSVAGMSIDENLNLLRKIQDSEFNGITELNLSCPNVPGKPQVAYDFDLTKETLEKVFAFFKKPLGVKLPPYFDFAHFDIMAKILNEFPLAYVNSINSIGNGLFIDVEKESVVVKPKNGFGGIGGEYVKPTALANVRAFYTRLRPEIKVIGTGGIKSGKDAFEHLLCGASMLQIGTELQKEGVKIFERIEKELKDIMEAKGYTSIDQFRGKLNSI
pIC50: −log10 of the molar value.

- molecule: "Fc1cc(I)ccc1Nc1ccnc2cc(Cl)ccc12"
  target-under-test: "Dihydroorotate dehydrogenase (fumarate) (Saccharomyces cerevisiae S288c)"
  pIC50: "< 5.00"
- molecule: "CCCCCC1CCCc2c1nc1ccccc1c2O (stereo not drawn)"
  target-under-test: "Dihydroorotate dehydrogenase (fumarate) (Saccharomyces cerevisiae S288c)"
  pIC50: "< 5.00"
- molecule: "CCOC(=O)c1[nH]c(C)c(Cc2ccc(OCC)cc2)c1C"
  target-under-test: "Dihydroorotate dehydrogenase (fumarate) (Saccharomyces cerevisiae S288c)"
  pIC50: "< 5.00"
